Taken from patent US7087622B2.

- System: type III protein secretion system of P. aeruginosa PA103 (ExoU secretion)
- measurement protocol: Tertiary assay: Type III-dependent secretion of ExoU by P. aeruginosa PA103 (SDS-PAGE band quantitation)
- Type: cell-based
- condition: Pseudomonas aeruginosa, ExoU secreted into extracellular medium
API: label(entry) gives 1 (yes) if the entry's IC50 is strictly smaller than 50 µM; on equality or larger values it gives 0 (no).

| compound | label |
| --- | --- |
| O=C(Nc1cc(-c2ccc(F)cc2F)cn(C(Cc2ccc(Cl)cc2)C(=O)O)c1=O)c1ccc(C(F)(F)F)cc1 (stereo not drawn) | 0 (no) |
| O=C(Nc1cc(-c2ccc(Cl)c(Cl)c2)cn(C(Cc2ccc(Cl)cc2)C(=O)O)c1=O)c1ccc(-c2ccccc2)cc1 (stereo not drawn) | 0 (no) |
| O=C(Nc1cc(-c2cccc3c2sc2ccccc23)cn(C(Cc2ccc(Cl)cc2)C(=O)O)c1=O)c1ccc(C(F)(F)F)cc1 (stereo not drawn) | 0 (no) |
| O=C(Nc1cc(-c2cccc3ccccc23)cn([C@@H](Cc2ccccc2)C(=O)O)c1=O)c1ccc(C(F)(F)F)cc1 | 0 (no) |
| O=C(Nc1cc(-c2ccccc2Oc2ccccc2)cn(C(Cc2ccc(Cl)cc2)C(=O)O)c1=O)c1ccc(-c2ccccc2)cc1 (stereo not drawn) | 1 (yes) |
| O=C(Nc1cc(-c2ccc3ccccc3c2)cn(C(Cc2ccc(Cl)cc2)C(=O)O)c1=O)c1ccc(-c2ccccc2)cc1 (stereo not drawn) | 1 (yes) |
| O=Cc1ccc(-c2cc(NC(=O)c3ccc(C(F)(F)F)cc3)c(=O)n([C@@H](Cc3ccccc3)C(=O)O)c2)cc1 | 0 (no) |
| O=C(Nc1cc(-c2ccc(F)cc2)cn(C(Cc2ccc(Cl)cc2)C(=O)O)c1=O)c1ccc(Oc2ccccc2)cc1 (stereo not drawn) | 0 (no) |
| O=C(Nc1cc(-c2ccc(C(F)(F)F)cc2)cn(C(Cc2ccc(Cl)cc2)C(=O)O)c1=O)c1ccc(-c2ccccc2)cc1 (stereo not drawn) | 1 (yes) |
| O=C(Nc1cc(-c2ccc(Oc3ccccc3)cc2)cn(C(Cc2ccc(Cl)cc2)C(=O)O)c1=O)c1ccc(-c2ccccc2)cc1 (stereo not drawn) | 1 (yes) |

Consider the record given below.
Lookup: API: query returns whether the compound falls strictly under 50 µM in IC50. Query: O=C(Nc1cc(-c2ccc(-c3ccccc3)cc2)cn(C(CSCc2ccccc2)C(=O)O)c1=O)c1ccc(C(F)(F)F)cc1 (stereo in doubt)
Found: 1 (yes)
